target: ratP2X7 (Rattus norvegicus, UniProt Q64663); assay: P2X7 channel calcium-influx assay (Fluo-8, FLIPR TETRA), rat P2X7; details: HEK-293 cells stably transfected with P2X7; Bz-ATP at EC80; low divalent cation buffer; read-out: ratP2X7 (activity range)
Sequence (Q64663 whole entry): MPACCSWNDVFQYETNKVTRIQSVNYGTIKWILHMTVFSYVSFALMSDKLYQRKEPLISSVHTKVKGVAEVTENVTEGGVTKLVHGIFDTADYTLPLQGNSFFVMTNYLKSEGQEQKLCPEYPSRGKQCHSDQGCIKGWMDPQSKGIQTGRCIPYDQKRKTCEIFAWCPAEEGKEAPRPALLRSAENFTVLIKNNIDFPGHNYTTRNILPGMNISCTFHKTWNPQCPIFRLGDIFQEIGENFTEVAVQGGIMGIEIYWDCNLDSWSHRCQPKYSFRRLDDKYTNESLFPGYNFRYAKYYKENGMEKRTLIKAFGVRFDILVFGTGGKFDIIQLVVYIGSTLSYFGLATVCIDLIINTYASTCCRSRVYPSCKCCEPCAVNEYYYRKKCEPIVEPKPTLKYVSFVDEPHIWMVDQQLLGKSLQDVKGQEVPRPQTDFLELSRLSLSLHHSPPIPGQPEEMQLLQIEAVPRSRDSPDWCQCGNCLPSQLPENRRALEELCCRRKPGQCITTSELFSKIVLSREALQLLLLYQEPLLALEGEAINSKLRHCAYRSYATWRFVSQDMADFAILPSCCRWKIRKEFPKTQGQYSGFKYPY
pIC50: −log10 of the molar value.
Each record here notes measured pIC50.

Cn1nc(Cc2ccccc2Cl)n(CC2CCC(F)(F)CC2)c1=O [Example 42] :: > 6.70
Cn1nc(Cc2ccccc2F)n(CC2CCC3(CC2)CC3)c1=O [Example 47] :: > 6.70
Cn1nc(Cc2ccccc2F)n(CCC2CCC(F)(F)CC2)c1=O [Example 46] :: 6.00 to 6.70

The compound listed as Cn1nc(Cc2c(F)cccc2Cl)n(CC2CCC(F)(F)C2)c1=O (centres unmarked) [Example 4] has a reported pIC50 of 6.00 to 6.70

The compound listed as Cn1nc(Cc2ccccc2C(F)(F)F)n(CC2CCCCC2(C)C)c1=O (centres unmarked) [Example 23] has a reported pIC50 of > 6.70
